B1: TMEM106C (parent)
chain: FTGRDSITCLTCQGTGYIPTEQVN

variants of: B1; test: protein stability index of a GFP-peptide fusion (GPS, HEK-293T) (PSI 1-6); higher = more stable; conditions: c terminus: a fixed tail appended;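 note: lentivirally expressed fusions sorted by FACS into six bins by GFP to DsRed ratio, PSI derived from sequencing read proportions per bin multiplied by bin number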
Below: a set of entries, each annotated with reported protein stability index.

Study these solved cases before continuing.
> print(dat)
   sequence.variant  endpoint.result
1               C9L             2.04
2              L10Y             3.42
3              G16K             1.56
4              T11C             1.86
5              V23G             1.75

**Query** Name the recorded protein stability index of the variant listed here: D5L
**Result** 2.66

**Query** Name the recorded protein stability index of the variant listed here: R4G
**Result** 1.74
